# Target Of Assay: σ2-receptor (Mus musculus, UniProt Q8VD00)
# Sequence (Q8VD00 1-176): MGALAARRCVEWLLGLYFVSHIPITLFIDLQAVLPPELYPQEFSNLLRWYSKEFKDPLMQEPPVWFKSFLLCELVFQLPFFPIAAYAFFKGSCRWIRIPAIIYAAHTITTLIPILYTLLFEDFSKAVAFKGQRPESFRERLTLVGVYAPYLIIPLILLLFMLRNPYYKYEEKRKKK
Measured Metric: Ki (nM)
// note: answer is a bare numeric in nM

Returns the measured Ki for the input compound. Input: C[C@@H]1CN(CCC2CCCc3c2cnn3-c2ccc(F)cc2)C[C@H](C)O1.O=C(O)C(=O)O (stereo partly shown) [Example 68, oxalate]
35.2

Also check O=C(O)C(=O)O.c1ccc(C2CCN(CCC3CCCc4c3cnn4-c3ccccc3)CC2)cc1 (stereo not shown) [Example 9, oxalate]
37.5

Also check O=C(O)C(=O)O.c1ccc(-n2ncc3c2CCCC3CCN2Cc3ccccc3C2)cc1 (stereo not shown) [Example 56, oxalate]
1.4

Also check O=C(O)C(=O)O.c1ccc(-n2ncc3c2CCCC3CCN2CCC3(CC2)OCc2ccccc23)cc1 (stereo not shown) [Example 12, oxalate]
37

----------
# Target Of Assay: σ1-receptor (Cavia porcellus, UniProt Q60492)
# Construct: guinea pig brains were homogenized; from tissue; host or cells: guinea pig brain membranes
# Sequence (Q60492 whole entry): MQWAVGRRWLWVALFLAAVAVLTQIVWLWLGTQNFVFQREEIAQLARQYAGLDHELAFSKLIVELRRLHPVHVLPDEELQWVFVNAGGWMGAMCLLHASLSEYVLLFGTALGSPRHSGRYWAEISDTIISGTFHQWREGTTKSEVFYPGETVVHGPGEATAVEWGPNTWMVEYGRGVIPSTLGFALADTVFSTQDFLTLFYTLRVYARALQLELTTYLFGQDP
# Assay Name: Sigma-1 receptor binding, [3H](+)-pentazocine, brain membranes
# Design: species or system guinea pig
# Run Parameters: 2.5 h; tested compound at 10^-6 M; [3H](+)-pentazocine 0.5 nM; read-out: binding sigma-1 (*) % of radioactively labeled compound replaced by the tested compound
Structures can show the parent of a compound that is named as a salt.
Measured Metric: inhibition at 1 µM (%)
// note: answer is a bare numeric in %

Returns the measured inhibition at 1 µM for the input compound. Input: c1ccc(-n2ncc3c2CCC3CCN2CCCC2)cc1 (stereo not drawn) [Example 40, oxalate]
101

Also check c1ccc(-n2ncc3c2CCC3CCn2ccnc2)cc1 (stereo not drawn) [Example 45]
76.4

Also check C(/CN1CCC(c2ccccc2)CC1)=C1/CCCc2c1cnn2-c1ccccc1 [Example 17]
100

Also check O=C(O)C(=O)O.c1ccc(C2CCN(CCC3CCCc4c3cnn4-c3ccccc3)CC2)cc1 (stereo not drawn) [Example 9, oxalate]
101

Also check Clc1ccc(-n2ncc3c2CCCC3CCN2CCOCC2)cc1Cl.O=C(O)C(=O)O (stereo not drawn) [Example 7, oxalate]
100

Also check Cn1ncc2c1CCCC2CCN1CCC(c2ccccc2)CC1.O=C(O)C(=O)O (stereo not drawn) [Example 58, oxalate]
106

Also check C(/CN1CCC(c2ccccc2)C1)=C1/CCCc2c1cnn2-c1ccccc1 (stereo not drawn) [Example 24]
100

Also check O=C(O)C(=O)O.c1ccc(-n2ncc3c2CCC3CCN2CCc3ccccc3C2)cc1 (stereo not drawn) [Example 44, oxalate]
106

Also check O=C(O)C(=O)O.c1ccc(-n2ncc3c2CCCC3CCN2Cc3ccccc3C2)cc1 (stereo not drawn) [Example 56, oxalate]
106

Also check C(/CN1CCCCC1)=C1/CCCc2c1cnn2-c1ccccc1 [Example 27]
99.6

Also check C[C@@H]1CN(CCC2CCCc3c2cnn3-c2ccccc2)C[C@H](C)O1.O=C(O)C(=O)O (stereo partly drawn) [Example 49, oxalate]
101

Also check Fc1ccc(-n2ncc3c2CCCC3CCN2Cc3ccccc3C2)cc1 (stereo not drawn) [Example 70]
100

Also check CC1CCN(CCC2CCCc3c2cnn3-c2ccccc2)CC1 (stereo not drawn) [Example 94, oxalate]
103

Also check Clc1ccc(-n2ncc3c2CCCC3CCN2CCC(c3ccccc3)CC2)cc1Cl (stereo not drawn) [Example 4, oxalate]
100

Also check O=C(O)C(=O)O.c1ccc(-n2ncc3c2CCC3CCN2Cc3ccccc3C2)cc1 (stereo not drawn) [Example 35, oxalate]
101
